Reported IC50 values follow for various compounds
biological target: NLRP3 (Homo sapiens); experiment: THP-1 cells pyroptosis assay (LPS + nigericin, resazurin readout; THP IC50); assay type: cell-based; parameters: Seed THP-1 cells (25,000 cells/well) containing 1.0 μg/ml LPS in 40 μl of RPMI medium; host or cells: THP-1 cells
Sequence (Q96P20 whole entry): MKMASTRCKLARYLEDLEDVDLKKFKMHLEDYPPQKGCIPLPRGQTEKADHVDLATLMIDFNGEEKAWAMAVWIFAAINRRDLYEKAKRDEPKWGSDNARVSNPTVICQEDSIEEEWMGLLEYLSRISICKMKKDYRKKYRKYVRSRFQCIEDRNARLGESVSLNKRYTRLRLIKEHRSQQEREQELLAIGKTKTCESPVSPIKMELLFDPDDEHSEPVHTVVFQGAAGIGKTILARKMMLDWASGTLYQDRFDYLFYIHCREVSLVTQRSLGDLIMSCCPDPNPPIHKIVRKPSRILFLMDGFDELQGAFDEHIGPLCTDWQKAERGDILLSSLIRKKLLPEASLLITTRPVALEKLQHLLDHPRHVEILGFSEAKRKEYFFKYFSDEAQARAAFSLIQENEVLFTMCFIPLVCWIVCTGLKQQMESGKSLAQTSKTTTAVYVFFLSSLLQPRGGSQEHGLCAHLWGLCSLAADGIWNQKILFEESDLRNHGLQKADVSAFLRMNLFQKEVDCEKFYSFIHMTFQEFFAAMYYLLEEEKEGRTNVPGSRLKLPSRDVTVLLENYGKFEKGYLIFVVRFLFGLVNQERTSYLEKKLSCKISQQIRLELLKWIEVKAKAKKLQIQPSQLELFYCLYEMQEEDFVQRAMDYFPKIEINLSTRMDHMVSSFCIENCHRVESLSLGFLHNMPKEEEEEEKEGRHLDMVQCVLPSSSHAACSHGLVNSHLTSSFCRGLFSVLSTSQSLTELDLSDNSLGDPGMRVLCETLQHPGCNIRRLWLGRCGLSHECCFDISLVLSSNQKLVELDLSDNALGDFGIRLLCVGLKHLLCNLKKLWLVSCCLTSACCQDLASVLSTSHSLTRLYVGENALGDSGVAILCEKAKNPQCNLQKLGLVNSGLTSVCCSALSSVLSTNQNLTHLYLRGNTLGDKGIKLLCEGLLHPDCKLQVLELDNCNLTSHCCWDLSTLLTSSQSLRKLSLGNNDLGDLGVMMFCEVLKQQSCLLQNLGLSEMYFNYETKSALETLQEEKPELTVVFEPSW
Structures can show the parent of a compound that is named as a salt.
Endpoint label: IC50

[[record]]
compound = "COc1cc(-c2ccc3c(c2NC(=O)NS(=O)(=O)c2cnn(CC(F)F)c2)CCC3)ccn1 [Example 235, sodium salt]"
value_reported = "≤ 500 nM"

[[record]]
compound = "COc1cc(-c2ccc3c(c2NC(=O)NS(=O)(=O)c2ccn(C(C)(C)C)n2)CCC3)ccn1 [Example 252, sodium salt]"
value_reported = "≤ 500 nM"

[[record]]
compound = "[2H]C([2H])([2H])Oc1cc(-c2ccc3c(c2NC(=O)NS(=O)(=O)c2ccn(C4CC4)n2)CCO3)ccn1 [Example 278, sodium salt]"
value_reported = "≤ 500 nM"

[[record]]
compound = "COc1cc(-c2ccc3c(c2NC(=O)NS(=O)(=O)CCc2ccccc2)CCC3)ccn1 [Example 137]"
value_reported = "≤ 500 nM"

[[record]]
compound = "CCN(CC)CCCS(=O)(=O)NC(=O)Nc1c(-c2ccnc(OC)c2)cc(F)cc1C(C)C [Example 147]"
value_reported = "≤ 500 nM"

[[record]]
compound = "CC(C)c1cc(F)cc(-c2cnn(C)c2)c1NC(=O)NS(=O)(=O)c1ccn(C(C)C)n1 [Example 2]"
value_reported = "≤ 5000 nM"

[[record]]
compound = "Cc1cc(-c2ccc3c(c2NC(=O)NS(=O)(=O)c2ccn(C4CCC4)n2)CCC3)ccn1 [Example 269, sodium salt]"
value_reported = "≤ 500 nM"

[[record]]
compound = "CC(=O)Nc1cc(-c2ccc3c(c2NC(=O)NS(=O)(=O)c2ccn(C(C)C)n2)CCC3)ccn1 [Example 297, sodium salt]"
value_reported = "≤ 1000 nM"

[[record]]
compound = "COc1cc(-c2ccc3c(c2NC(=O)NS(=O)(=O)c2nn(C4CC4)cc2F)CCC3)ccn1 [Example 305]"
value_reported = "≤ 500 nM"

[[record]]
compound = "COc1cc(-n2nc3c(c2NC(=O)NS(=O)(=O)c2cc(C(C)(C)O)co2)CCC3)ccn1 [Example 322]"
value_reported = "≤ 5000 nM"

[[record]]
compound = "CC(C)c1cc(F)cc(-c2cccc(C#N)c2)c1NC(=O)NS(=O)(=O)c1ccn(C(C)C)n1 [Example 8, sodium salt]"
value_reported = "≤ 5000 nM"

[[record]]
compound = "CCN1CCC(S(=O)(=O)NC(=O)Nc2c(-c3ccnc(OC)c3)cc(F)cc2C(C)C)CC1 [Example 100, potassium salt]"
value_reported = "≤ 5000 nM"

[[record]]
compound = "Cc1ccncc1-c1cc(F)cc(C(C)C)c1NC(=O)NS(=O)(=O)c1ccn(C(C)C)n1 [Example 20, ammonium salt]"
value_reported = "≤ 5000 nM"

[[record]]
compound = "CC(C)c1cc(F)cc(-c2cccnc2)c1NC(=O)NS(=O)(=O)c1cc(CN(C)C)n(C)n1 [Example 44]"
value_reported = "≤ 500 nM"

[[record]]
compound = "COCCOc1cc(-c2ccc3c(c2NC(=O)NS(=O)(=O)c2ccn(C(C)C)n2)CCC3)ccn1 [Example 300, sodium salt]"
value_reported = "≤ 500 nM"

